Origin of values: PubChem BioAssay AID1159580

Assay: chemical genetic growth profiling, strain panel (AID 1159580);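 also: tested at 20 µM; growth read once vehicle control cultures reached saturation at 30 °C; 1 = growth at the plate median or of vehicle wells; lower values mean less growth of the strain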
Conditions: S. cerevisiae deletion strains, growth OD, locus YHR087W, strain rtc3, hits give low values
In all, about 5,500 compounds went through this assay and about 2,000 (36%) were called active. Roughly 18% stayed inconclusive and do not appear here. The list shows a part of the results.
measured_attribute: normalized growth
One number for each entry.

Known results for compounds:
Cc1cc(=O)n2[nH]cnc2n1 = 0.99
CSc1c(-c2ccccc2)c(N)nn1S(=O)(=O)c1ccccc1 = 0.973
Cn1c2c(c(=O)n(C)c1=O)CN(CCCCCCO)CN2 = 1
C/C(=N/O)c1sc2nc(C(F)(F)F)nn2c1C = 0.961
CCc1nnc(N=CNO)s1 = 0.79

Hi team, please reply with normalized growth for each item in this list.
1. COc1c(Br)cc([N+](=O)[O-])c(OC)c1C(N)=O
2. O=[N+]([O-])c1ccc(OCCO)c([N+](=O)[O-])c1
3. COC(=O)CCCCCCCC(=O)Nc1ccc(Cl)cc1

[1.01, 0.991, 0.983]

Hi team, please reply with normalized growth for each item in this list.
1. OC1(c2ccc(F)cc2)Cc2ccccc2C2=NCCN21 (stereo unspecified)
2. CSc1nc2ccccc2[nH]1
3. O=[N+]([O-])c1cc(C(F)(F)F)c(N2CCCCC2)cc1N1CCCCC1
4. c1ccc(OCCOc2ccccn2)nc1

0.987
0.969
0.98
0.992

Hi team, please reply with normalized growth for each item in this list.
1. O=C(NNC(=S)Nc1cccc(Cl)c1)c1ccncc1
2. CCOC(=O)CNc1ccc(F)cc1
3. CCOC(=O)Cc1csc(N=CNO)n1
4. CCCOc1ccccc1/C=N\NC(=S)Nc1cccc(F)c1
5. O=C(O)CSCc1ccccc1
6. Cc1nc(N)ncc1Sc1ccccc1

[1, 1.01, 1.04, 1.03, 0.99, 0.996]

Hi team, please reply with normalized growth for each item in this list.
1. COC(=O)c1ccc2c(c1)N(C)S(=O)(=O)CC2=O
2. O=[N+]([O-])c1ccc(S(=O)(=O)N2CCCCC2)cc1
3. O=C(CSc1ccc(Cl)cc1)Nc1ccc(F)cc1
4. CCOC(=O)N=Nc1c(O)[nH]c2ccc(F)cc12
5. Cc1ccc(C)n1-c1ccc(C(=O)NNC(=O)c2ccc3nccnc3c2)cc1

1: 1; 2: 0.994; 3: 0.888; 4: 1.03; 5: 0.986
